System: HCT-116
procedure_text: NCI tumour cell line growth inhibition, 48 h
The source made the active and inactive calls. No stated cut-off is given here; in the data, active = GI50 up to about 1.1 µM and inactive = higher.
Outcome codes: active, inactive

In [3]: df
Out[3]:
                                   compound     class
0                     CC(=O)CC(=O)N1CCOC1=O  inactive
1  CN1C(=O)c2c(c3c4ccccc4n(C4OC(CO)C(O)C(O)C4O)c3c3[nH]c4ccccc4c23)C1=O (centres undefined)    active
2  C=C1COC(O)(C2OCOC(C3CC(=O)NC(=O)C3)C2O)C1C (centres undefined)    active
3  CC1=C(C)C(=O)OC(C(C)(O)C2(O)CCC3(O)C4CC(Cl)C5(O)C(O)C=CC(=O)C5(C)C4CCC32C)C1 (centres undefined)  inactive
